This section presents IC50 values reported for Histone deacetylase 1 (Homo sapiens, UniProt Q13547) in the literature.
Reported Metric: IC50 (nM)

P. Cc1c(F)c(N)cc(C(=O)Nc2cc(-c3ccc(NC(=O)Cc4ccc(/C=C/C(=O)NO)cc4)cc3)ccc2N2CCN(C)CC2)c1Cl
Q. CCCNNC(=O)c1ccc(NC(=O)c2cnc(-c3cc4ccc5cccc6ccc(c3)c4c56)s2)cc1
Between item P and item Q , which reported IC50 is smaller? Bench note: the answer is the label of the chosen record. P
(P: 831 nM, Q: 1360 nM)

I. CCCNNC(=O)c1ccc(NC(=O)c2cnc(-c3ccc(OC(F)(F)F)cc3)s2)cc1
II. CC(c1nc2c(cnn2C2CCCC2)c(=O)[nH]1)C1CC(Cc2ccc(C(=O)NO)cc2)C1 (stereo not given)
Between item I and item II , which reported IC50 is smaller? Bench note: the answer is the label of the chosen record. II

I. CN(C)c1ccc(C(=O)N(CC(=O)NCc2ccccc2)Cc2ccc(C(=O)O)cc2)cc1
II. Cc1c(F)c(N)cc(C(=O)Nc2cc(-c3ccc(NC(=O)CCc4ccc(/C=C/C(=O)NO)cc4)cc3)ccc2N2CCN(C)CC2)c1Cl
Short answer wanted: higher IC50, I or II ? Bench note: the answer is the label of the chosen record. I

I. CCCNNC(=O)CCCCCCNC(=O)c1cnc(-c2ccc(NC(=O)OC(C)(C)C)cc2)s1
II. CCCNNC(=O)CCCCCCNC(=O)c1cnc(-c2ccc3ccccc3c2)s1
III. C[C@@H]1CN(Cc2ccc(CC(=O)CNO)cc2)C[C@H]1c1nc2c(cnn2C2CCOCC2)c(=O)[nH]1
Sort the compounds on IC50; start with the lowest figure. List the labels, following the order given in the request. III, II, I
